- assay overview: soluble fraction after stress (log2 fold change); higher = more stays soluble; pooled small domains, quantitative proteomics;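 also: 20 min heating vs room temperature control held 20 min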
- settings: stress: 75 degC
Label satisfied for high-side soluble fraction (log2) (at or above -1) and not satisfied for low-side soluble fraction (log2) (below it).

Example entries begin here.
HMREGRERRLSQLLSYLRTHHILTRSEYVKLTGLSPTAASSELKTFVTAGHIVRKGIASHSTYRLPH
not satisfied
HMDPSHGESRENLDIMRIIDETHLEYPSWGYRKMTDHLRANHGYTINRKRVRRLMRLMDIIALFPG
not satisfied
HMRLNIRTKNNYSYYTIIKDYTNLNGKRTTTIFEKLGNQQQVEERFGKVNTIENIKKYIEELNNE
not satisfied
HMEDMMKALLDVVRAQHTATEGSEERPFDINDIIDMALNITGRPEEPEEQQELSDTIQKLAESLAPDIFP
satisfied
HMAGTPAIVKWFNPTKGFGFVTPKEAGSDALLHASVLAKRGKRWLQEGTLVEVLIEEGPKGLVVSELLTIE
satisfied
HMLTTIRKATVNDKTRIMEIYAYARQFMAEHGNPNQWKNNNPSEETIDNDIAKQEMYVIETDGEVHAVFY
not satisfied

Here's the next entry for you.
stdin: API: above_or_equal(metric=soluble fraction (log2), cutoff=-1) for item HMAAVAPPVLERIASDLATRFAGTLSPETVDRYVRESYHLLAERAGITRYLPSLTARFAGDRLDA
stdout: satisfied

---

- assay overview: soluble fraction after stress (log2 fold change); higher = more stays soluble; pooled small domains, quantitative proteomics
- settings: stress: 75 degC
Reported soluble fraction (log2) values for the following sequences.
In your answer, state the number alone without any accompanying words.

Some sequences with recorded soluble fraction (log2):
HMTIGKRIKRRRIELKMSIDSLARTIGKDRSTVYRYESGAIDKVSSDVLAKLATALNTTPAYLIGL
-4.61
HMPEVAHTIDMEAVNKHWDELPEREQRILVMRFYGNLTQTEIGERLGISQMHVSRLLARALSHLKSRLLD
-3.89
HMDVDKQLDQLLAAMIPDKSLRQTIKTKAFNELVDNELADKDISSWTKQTMDVFMTRAEDMFGAM
-0.274

stdin: Any idea what soluble fraction (log2) was measured for HMDGMRASDMVRAALAGAGKTQKELAEHMGWTPQNLSGRLKNNSLTFDELSKALHFAGYEVSMSDANGAG ?
stdout: 0.0394

---

- assay overview: soluble fraction after stress (log2 fold change); higher = more stays soluble; pooled small domains, quantitative proteomics
- settings: stress: 75 degC
Class field: derived from soluble fraction (log2); ranges low: < -2; moderate: ≥ -2 and < -0.2; high: ≥ -0.2

Observe how each entry below is paired with its result.
HMRGPDLSKDFHEYISSQWMFFGRNAYQIAEQINKDTQLMSKYGKTTPSGVHYHIKQIQQEMEN
moderate
HMDKSRPVLRVGDSGDWVSKLQTALLEFGYRVAVDGVFGEHTKSAVVHFQNGRRLIADGVVGNLTWDALL
low

stdin: Which bin should I file HMESRMTYLQKTKLATENLDAKLIDHQQWVAEVLGEDYRGVYSDEYLRRAAKVFAIFVNNLDD under?
stdout: low

stdin: And the next one, HMSESAGKAFDLLFYLAKAGETVSLARLSRETGMNKATALRYLNVLESKGVVERSKLGWTLGLSLFELGSK ?
stdout: low

---

- assay overview: soluble fraction after stress (log2 fold change); higher = more stays soluble; pooled small domains, quantitative proteomics
- settings: stress: 75 degC
Measured soluble fraction (log2) accompanies every entry in the list below.
Reply with just the number.

HMGSDQEAAMARQDRLSTLVDYVVERGSVHVDDIVADLGVSPATVRRDLDALAAQQLIIRTRGGATANHT
0.034
HMELEWENYSLAGEIKTTVMLYQNRRNGLPEEAKQKADALMKQLKQAVIENDAQKVEKIDDALTALLFE
-0.564
HMKDLDSLSQEAKSVYAVFSDKPIHIDDIKRKTGLDFSKLFKAVTELELAELISSGEGKMYSL
-0.0075
HMSLSEYLSAPVLEGQRNHALFSAVMQAREQGWDEWQIRTTIGAKAEADGLRHAEIAATIRSAMSREITP
-0.314

stdin: Report soluble fraction (log2) for HMAKPAALLFEHRFDGMAEMRFRENIVKNDDGSYTYDEYFLSMLDRAGLEKIVQENMEVWIAYAKQ please.
stdout: -2.1

stdin: Further, for HMSKIRTFRVKTVAVDQAYQVLKDYSPIKISTESNAVIIDLDESKTPAEIAGYLEKNGIKVDNIEVIAESE ?
stdout: 0.962

stdin: Another sequence to look at: HMQVSDTNTLEQFAKEVIEANPKAVEDYHQNPLAIGFLVGQLMKVSKGSANPQTGKEILEKLL
stdout: -0.112

stdin: Another sequence to look at: HMTLDDSFYQKADEIIANHTKEERSLIPIIQDIQAEYRYLPPELLTYVAKEIGITDARAYSVASFYENFS
stdout: -0.521

stdin: Record: HMVDLEINGRQTLQFVANKYGIPVEKLATDLNIPSDRFGEKLGRLRRQYAFTMNDVRKSILKNK
stdout: -0.588

stdin: Let us now turn to HMIKITLPDGSVKEYKKGITPAEVAQSISEGLARNVISASYNGKTIETVTPLTTDGSLVLYTWDSPEGK
stdout: 0.0404

---

Catalogue of soluble fraction (log2) readings, one per entry.
- assay overview: soluble fraction after stress (log2 fold change); higher = more stays soluble; pooled small domains, quantitative proteomics
- settings: stress: 75 degC
Provide a numeric answer; units are not to be included.

Here are 3 sequences together with their reported answers.
HMQYDSYTVEEPAKLLDWLLAHLRQSRTKIKATLQGHGIKVNGKTVTQFDYPLEPGMKIRVSLTK
-1.24
HMGPNSVPDLRGKSLRQAMKMVNDLELKAIFEGEGIVVGQVPAPGKPVPETKILKITLSLEPY
-1.58
HMGGGRELGLDPETGKKISVRLGKFGPFVQLGESGEEDKPVFANLGKNQSIATLSLEEAIALLARPK
0.187

# next sequence below
stdin: Endpoint output: soluble fraction (log2) of HMENMSFGTKLYTWLYGKLVGSDEIGNKYYTNINDPSDLNAKRWVIFNGEIEASKIPPHWHAWLHKSIDK . Value?
stdout: -0.918

---

- assay overview: soluble fraction after stress (log2 fold change); higher = more stays soluble; pooled small domains, quantitative proteomics
- settings: stress: 75 degC
attribute measured: soluble fraction (log2)
Just the number, please, no unit attached.

Answered cases to consult:
HMIGVQEFAMTYALTRRETEITQLIIQGKSNAMIAGELFISETTVKKHVSNIFEKTGVSRREELMVRVQAE
-1.98
HMFIPMTDAQRHLFANKLAKLPELSEYSRGTESYEDFAIRIADMLLEPPKFRMFYPLLEQLGF
-1.77
HMFYLPEPLTEQELRILGMLLDGRSNPEIAAELFIAVGTAKWHVHNILQKLGVANRAQAIVKAHELGLT
-2.08

Could you now consider this next sequence?
stdin: Which soluble fraction (log2) reading was recorded for the sequence HMAGDVVVEVVGKVRDPQVVTLPKGSRVQDALEAAGGVKPGVNTTDQNLARLLVDGEQIRIGLSS ?
stdout: 0.107

---

Parameter: soluble fraction (log2). Scope: all listed entries.
- assay overview: soluble fraction after stress (log2 fold change); higher = more stays soluble; pooled small domains, quantitative proteomics
- settings: stress: 75 degC
The answer should be written as a number, with no unit following it.

Illustrative cases are given below, each with its answer.
HMWPTPRTWSALMNELNLYKENHGYANIVDIPSEKIRRMADGIIGEDMAVRYVAFLQSHASS
-1.7
HMQGEVVTNRSVIDMSRAGLSADIIRAKILRSDTNFDVTAKALIELKESGVPDDIIALMLERADS
0.00604

stdin: Please report the recorded soluble fraction (log2) for HMENVQLRNFAIKATEAGIIKLSSDQRTFMWASNQKKLMTVPFDEHPYSAMAQFFKTDEGLAVFKSIEKKL .
stdout: -1.47

stdin: Same question for HMNEFAYLIKISPEHNNNRYYRMVAEGDNFRIEMGRIGASPVQMKRPMYLWNETYQKKLQEGYTDRTSYTS please.
stdout: -1.85

stdin: Same question, HMSLTGFYNLTFKQADRLSVIDEAGEEVYKQAIAMGSTTKTIDLSALNAGVYFIRIYNGEVIAQEKIVLN this time
stdout: -0.933

stdin: Request: HMIDLSELINKTGSAYTNLRPSGTAVIGDDRVDVVTEGTFVEKDRPVKVVAVEGQRVVVREVE
stdout: 0.209

stdin: HMLARPTANELVKEMQRRAKEQRTELPPDAARDLLERSGQDQFLLGNEVDKLAALSGYTTITREMVAQAGT ?
stdout: 0.247

---

- assay overview: soluble fraction after stress (log2 fold change); higher = more stays soluble; pooled small domains, quantitative proteomics
- settings: stress: 75 degC
Recorded soluble fraction (log2) determines the group label, using Low = under -2, Medium = from -2 up to 0.1, High = 0.1 and over

Answered cases to consult:
HMSEQVQLQAQVEDDLIGKRLDQVVAQLFPDYSRSRLQGWIKDGSLTVDGESRRPRDKMMGGEVVRVEATL
High
HMTTIHVDPEKISKIIGPGGKTIKKIVEETGAKIDIEEDGRVYIAAVNSEEAAKAIDMINGI
Medium
HMRRMTEEQSKLFQGLVSIVQTTLVADMEKGAVTPLLIAEKVDFVADNLYPGKDIDRKEAVAELIRRFSLW
Medium

stdin: Lab note: which band did HMFEYDEEEYEKLGPNADLTIKSMTDWGQSLVRKGVWSESDFEEFKIMGGTAQGLRALQKVRSYY land in?
stdout: Medium

stdin: Same question, HMASKTGTITATSLNVRSGAATTYSILGTLSNGKTVTIYEESNGWYKINYNGGYGWVSKTYVSTG this time
stdout: Medium

stdin: Similarly, HMQARSQQTIQTLFKAAAQILDKEGEAGLSTNKVAAAAGFSIGTLYQYFPSKEVLIQAMAAR ?
stdout: High

stdin: Can you handle HMPDLSEDEEKIVSLLRDNNDLNVNIIVMRTQLPSATVTSSLFSLELKGVVRMYAGGMYHLM next?
stdout: Low

Attribution: the domain aggregation screens of Martell et al. (2025)
